Tested on: SK-MEL-28 melanoma
Experiment: NCI-60 one-dose screen, 48 h (100 = growth as untreated, 0 = no growth, -100 = all killed)
Details: 10 µM unless noted
The panel holds about 83,000 compounds, 20% with a hit somewhere; the sample as a whole holds those more often. Activity calls are given as the source filed them. The calls were made as follows: active = growth percent below 10; inactive = the rest.
test readout: growth

| smiles repr | target system | recorded value |
| --- | --- | --- |
| Cc1ccc(NC(=O)c2sc3nc4c(cc3c2N)C(=O)CCC4)cc1Cl | SK-MEL-28 melanoma | 108% (inactive) |
| Clc1cccc(CNc2c3ccccc3nc3ccccc23)c1 | SK-MEL-28 melanoma | 66.2% (inactive) |
| COc1cccc(N2CCN(c3ncnc4cc[nH]c34)CC2)c1 | SK-MEL-28 melanoma | 80.8% (inactive) |
| O=S(=O)(Cc1ccc(Cl)cc1Cl)c1ccc(Cl)cc1 | SK-MEL-28 melanoma | 65.9% (inactive) |
| C=C[C@H]1CCC/C=C/[C@@H]2C[C@H](O)C[C@H]2[C@H](O)/C=C/C(=O)O1 | SK-MEL-28 melanoma | 7.46% (active) |
| O=C(/C=C/c1ccco1)c1ccccc1O | SK-MEL-28 melanoma | 111% (inactive) |
